- targetOfAssay: rM4 receptors (Rattus norvegicus)
- Sequence (P08485 whole entry): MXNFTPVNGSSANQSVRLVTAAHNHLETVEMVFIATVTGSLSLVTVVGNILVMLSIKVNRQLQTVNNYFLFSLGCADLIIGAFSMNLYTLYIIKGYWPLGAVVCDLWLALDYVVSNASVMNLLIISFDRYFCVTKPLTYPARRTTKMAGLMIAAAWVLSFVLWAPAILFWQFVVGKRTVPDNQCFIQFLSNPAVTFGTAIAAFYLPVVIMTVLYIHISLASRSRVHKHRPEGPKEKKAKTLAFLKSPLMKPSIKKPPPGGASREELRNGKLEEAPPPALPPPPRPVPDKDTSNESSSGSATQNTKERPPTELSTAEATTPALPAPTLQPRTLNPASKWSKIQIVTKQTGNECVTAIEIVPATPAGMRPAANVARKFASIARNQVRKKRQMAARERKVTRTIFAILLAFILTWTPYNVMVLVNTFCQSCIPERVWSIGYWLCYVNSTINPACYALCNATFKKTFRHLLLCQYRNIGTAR
- protocolNotes: Rat M4 PAM PERK assay (CHO cells, TR-FRET, with EC20 acetylcholine)
metric: EC50

Here's what some known entries look like.
- compound: "Cc1c2c(n(C)c(=O)c1Cl)CN(C(=O)C(C)C1CN(c3ccnc(C(F)(F)F)c3)C1)C2 (single isomer, unassigned) [Compound I-83]"
  EC50: "> 1000 nM"
- compound: "Cc1c2c(n(C)c(=O)c1F)CN(C(=O)CC1CN(c3cnc(C(F)(F)F)cn3)C1)C2 [Compound I-90]"
  EC50: "50 to 200 nM"
- compound: "Cc1c2c(n(C)c(=O)c1Cl)CN(C(=O)CC1CN(c3ncns3)C1)C2 [Compound I-80]"
  EC50: "200 to 1000 nM"
- compound: "Cc1c2c(n(C)c(=O)c1Cl)CN(C(=O)CC1CN(c3cncnc3)C1)C2 [Compound I-69]"
  EC50: "50 to 200 nM"

## Task Let me know recorded EC50 for Cc1cc(=O)n(C)c2c1CN(C(=O)CC1CN(c3cccc(F)c3C)C1)C2 [Compound I-33] , thanks.
## Result 200 to 1000 nM

## Task Let me know recorded EC50 for Cc1c2c(n(C)c(=O)c1C)CN(C(=O)CC1CN(c3ccc(CC(C)(C)O)c(F)c3)C1)C2 [Compound I-57] , thanks.
## Result 50 to 200 nM
